Source listed as ChEMBL document CHEMBL3132840.

# protocol-description: Cytotoxicity against human SH-SY5Y cells assessed as cell viability at 10 uM after 24 hrs by MTT assay
# Format: cell-based
# experimental-setup: read-out: Activity
measurement-name: viability at 24 h, 10 µM (%)
Quick reminder: number only, in %, skip the unit.

Exercise: May I ask what viability at 24 h, 10 µM has been recorded for COc1cc(/C=C/c2ccc(OCCCCCCN3CCCC3)cc2)cc(OC)c1 ?
Key: 94.4

* * *

# assayed-target: Cholinesterase (Equus caballus)
# Sequence (P81908 whole entry): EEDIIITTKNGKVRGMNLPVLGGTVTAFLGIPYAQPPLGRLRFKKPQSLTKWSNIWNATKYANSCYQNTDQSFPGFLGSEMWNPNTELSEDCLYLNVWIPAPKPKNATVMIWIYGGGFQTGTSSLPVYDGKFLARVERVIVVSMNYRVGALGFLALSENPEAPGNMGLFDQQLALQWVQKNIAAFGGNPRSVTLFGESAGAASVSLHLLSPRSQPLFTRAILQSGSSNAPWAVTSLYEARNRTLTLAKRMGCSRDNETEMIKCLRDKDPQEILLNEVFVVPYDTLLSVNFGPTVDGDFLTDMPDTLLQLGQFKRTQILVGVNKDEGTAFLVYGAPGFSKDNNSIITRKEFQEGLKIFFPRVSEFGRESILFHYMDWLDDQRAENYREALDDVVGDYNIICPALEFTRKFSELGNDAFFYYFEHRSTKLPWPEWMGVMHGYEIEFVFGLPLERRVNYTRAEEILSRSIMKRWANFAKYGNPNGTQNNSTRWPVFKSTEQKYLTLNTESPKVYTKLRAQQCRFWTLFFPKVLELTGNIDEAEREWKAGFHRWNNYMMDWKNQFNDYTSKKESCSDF
Please map values of IC50 to classes as shown: class 1 = under 10 µM, class 2 = from 10 µM up to 50 µM, class 3 = 50 µM and over

Worked examples, 4 molecules total:
> print(dat)
                                   molecule  assigned.label
1  COc1cc(/C=C/c2ccc(OCCCCCCCN(C)Cc3ccccc3)cc2)cc(OC)c1         class 2
2  COc1cc(/C=C/c2ccc(OCCCCCCN(C)Cc3ccccc3)cc2)cc(OC)c1         class 2
3  CCN(CCCCCCOc1ccc(/C=C/c2cc(OC)cc(OC)c2)cc1)Cc1ccccc1         class 1
4  CCCN(CCC)CCCCCCOc1ccc(/C=C/c2cc(OC)cc(OC)c2)cc1         class 1

Could you now consider this next molecule?
Exercise: Quick check: band for CCN(CC)CCCCCCOc1ccc(/C=C/c2cc(OC)cc(OC)c2)cc1
Key: class 2

* * *

Observed IC50, system UniProt:O42275.
Write the figure, then the unit, nothing else.

# count of solved cases: 4
> print(dat)
                                   molecule  recorded.value
1  COc1cc(/C=C/c2ccc(OCCCCCCN3CCOCC3)cc2)cc(OC)c1         24.4 µM
2  COc1cc(/C=C/c2ccc(OCCN(C)Cc3ccccc3)cc2)cc(OC)c1         79.3 µM
3  COc1cc(/C=C/c2ccc(OCCCCCCN3CCCCC3)cc2)cc(OC)c1         5.02 µM
4  COc1cc(/C=C/c2ccc(OCCCCCCN3CCC(O)CC3)cc2)cc(OC)c1         17.2 µM

Exercise: Param readout= IC50; system= UniProt:O42275; entry= CCN(CCCCCCOc1ccc(/C=C/c2cc(OC)cc(OC)c2)cc1)Cc1ccccc1F ; returns value.
Key: 86.6 µM

Exercise: Please give the result for CCN(CCCCCCOc1ccc(/C=C/c2cc(OC)cc(OC)c2)cc1)Cc1ccc(F)cc1 too.
Key: 92.3 µM

Exercise: Please give the result for COc1cc(/C=C/c2ccc(OCCCCCCCCN(C)Cc3ccccc3)cc2)cc(OC)c1 too.
Key: 26.5 µM

Exercise: Please give the result for CCN(CCCCCCOc1ccc(/C=C/c2cc(OC)cc(OC)c2)cc1)Cc1ccc(OC)cc1 too.
Key: 89.7 µM

Exercise: Please give the result for Oc1ccc(/C=C/c2cc(O)cc(O)c2)cc1 too.
Key: 165 µM

Exercise: Please give the result for COc1cc(/C=C/c2ccc(OCCCCCN(C)Cc3ccccc3)cc2)cc(OC)c1 too.
Key: 39.2 µM

Exercise: Please give the result for CCCN(CCC)CCCCCCOc1ccc(/C=C/c2cc(OC)cc(OC)c2)cc1 too.
Key: 12.1 µM

* * *

# protocol-description: Cytotoxicity against human SH-SY5Y cells assessed as cell viability at 50 uM after 24 hrs by MTT assay
# Format: cell-based
# experimental-setup: read-out: Activity
measurement-name: viability at 24 h, 50 µM

Exercise: May I ask what viability at 24 h, 50 µM has been recorded for COc1cc(/C=C/c2ccc(OCCCCCCN3CCCC3)cc2)cc(OC)c1 ?
Key: 90.8%

* * *

Each record here notes measured Ratio IC50.
# Species: Homo sapiens
# protocol-description: Selectivity index, ratio of IC50 for human MAO-B to IC50 for human MAO-A

# count of solved cases: 2
> print(dat)
                         structure.notation  measurement.name  recorded.value
1  COc1cc(/C=C/c2ccc(OCCCCCCCN(C)Cc3ccccc3)cc2)cc(OC)c1        Ratio IC50          < 0.64
2  COc1cc(/C=C/c2ccc(OCCN(C)Cc3ccccc3)cc2)cc(OC)c1        Ratio IC50          < 0.89

Query molecule follows.
Exercise: May I ask what Ratio IC50 has been recorded for CCN(CCCCCCOc1ccc(/C=C/c2cc(OC)cc(OC)c2)cc1)Cc1cccc(F)c1 ?
Key: < 0.97

* * *

# Species on record: Homo sapiens
# protocol-description: Selectivity index, ratio of IC50 for human MAO-B to IC50 for human MAO-A
measurement-name: Ratio IC50

> print(dat)
                         structure.notation  measurement.name  recorded.value
1  COc1cc(/C=C/c2ccc(OCCCCCCN3CCC(O)CC3)cc2)cc(OC)c1        Ratio IC50          < 0.14

Exercise: May I ask what Ratio IC50 has been recorded for COc1cc(/C=C/c2ccc(OCCCCN(C)Cc3ccccc3)cc2)cc(OC)c1 ?
Key: < 0.35

Exercise: Please give the result for COc1cc(/C=C/c2ccc(OCCCN(C)Cc3ccccc3)cc2)cc(OC)c1 too.
Key: < 0.5

* * *

# assayed-target: Amine oxidase [flavin-containing] B (Homo sapiens, UniProt P27338)
# Sequence (P27338 whole entry): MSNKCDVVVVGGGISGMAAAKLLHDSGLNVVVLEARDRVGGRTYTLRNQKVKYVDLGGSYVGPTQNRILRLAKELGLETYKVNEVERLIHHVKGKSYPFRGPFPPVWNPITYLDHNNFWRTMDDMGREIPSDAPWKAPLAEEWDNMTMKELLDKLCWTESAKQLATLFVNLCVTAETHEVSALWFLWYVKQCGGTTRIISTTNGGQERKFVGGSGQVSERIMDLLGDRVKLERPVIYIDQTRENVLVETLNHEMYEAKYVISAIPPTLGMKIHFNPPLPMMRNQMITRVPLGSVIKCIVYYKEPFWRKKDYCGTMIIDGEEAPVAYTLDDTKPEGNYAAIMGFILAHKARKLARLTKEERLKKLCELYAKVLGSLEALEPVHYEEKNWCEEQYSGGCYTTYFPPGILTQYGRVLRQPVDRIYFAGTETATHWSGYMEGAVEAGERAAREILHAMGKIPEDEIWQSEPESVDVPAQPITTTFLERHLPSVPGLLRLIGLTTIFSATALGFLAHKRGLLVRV
measurement-name: IC50 (µM)
Quick reminder: number only, in µM, skip the unit.

# count of solved cases: 3
> print(dat)
                                   compound  unit.descriptor  recorded.value
1  COc1cc(/C=C/c2ccc(OCCCCCCCN(C)Cc3ccccc3)cc2)cc(OC)c1               µM            63.8
2  COc1cc(/C=C/c2ccc(OCCCN(C)Cc3ccccc3)cc2)cc(OC)c1               µM            5.01
3  COc1cc(/C=C/c2ccc(OCCCCCCN3CCCCC3C)cc2)cc(OC)c1 (stereo not drawn)               µM            16.3

Exercise: May I ask what IC50 has been recorded for COc1cc(/C=C/c2ccc(OCCCCN(C)Cc3ccccc3)cc2)cc(OC)c1 ?
Key: 34.6

Exercise: Please give the result for COc1cc(/C=C/c2ccc(OCCCCCCN3CCC(O)CC3)cc2)cc(OC)c1 too.
Key: 14.6

Exercise: Please give the result for CCN(CC)CCCCCCOc1ccc(/C=C/c2cc(OC)cc(OC)c2)cc1 too.
Key: 10.1

* * *

# assayed-target: Cholinesterase (Equus caballus)
Each record here notes measured IC50.
Quick reminder: number only, in µM, skip the unit.

Exercise: Param readout= IC50; system= Cholinesterase (Equus caballus); entry= CCN(CCCCCCOc1ccc(/C=C/c2cc(OC)cc(OC)c2)cc1)Cc1ccccc1F ; returns value.
Key: 53

Exercise: Please give the result for COc1cc(/C=C/c2ccc(OCCCCCCN(C)C)cc2)cc(OC)c1 too.
Key: 10.3

Exercise: Please give the result for CCN(CCCCCCOc1ccc(/C=C/c2cc(OC)cc(OC)c2)cc1)Cc1cccc(F)c1 too.
Key: 52

Exercise: Please give the result for COc1cc(/C=C/c2ccc(OCCCCN(C)Cc3ccccc3)cc2)cc(OC)c1 too.
Key: 40.6

Exercise: Please give the result for Oc1ccc(/C=C/c2cc(O)cc(O)c2)cc1 [RESVERATROL] too.
Key: 752

Exercise: Please give the result for COc1cc(/C=C/c2ccc(OCCCN(C)Cc3ccccc3)cc2)cc(OC)c1 too.
Key: 77.3

* * *

# assayed-target: Acetylcholinesterase (Electrophorus electricus)
# Sequence (O42275 whole entry): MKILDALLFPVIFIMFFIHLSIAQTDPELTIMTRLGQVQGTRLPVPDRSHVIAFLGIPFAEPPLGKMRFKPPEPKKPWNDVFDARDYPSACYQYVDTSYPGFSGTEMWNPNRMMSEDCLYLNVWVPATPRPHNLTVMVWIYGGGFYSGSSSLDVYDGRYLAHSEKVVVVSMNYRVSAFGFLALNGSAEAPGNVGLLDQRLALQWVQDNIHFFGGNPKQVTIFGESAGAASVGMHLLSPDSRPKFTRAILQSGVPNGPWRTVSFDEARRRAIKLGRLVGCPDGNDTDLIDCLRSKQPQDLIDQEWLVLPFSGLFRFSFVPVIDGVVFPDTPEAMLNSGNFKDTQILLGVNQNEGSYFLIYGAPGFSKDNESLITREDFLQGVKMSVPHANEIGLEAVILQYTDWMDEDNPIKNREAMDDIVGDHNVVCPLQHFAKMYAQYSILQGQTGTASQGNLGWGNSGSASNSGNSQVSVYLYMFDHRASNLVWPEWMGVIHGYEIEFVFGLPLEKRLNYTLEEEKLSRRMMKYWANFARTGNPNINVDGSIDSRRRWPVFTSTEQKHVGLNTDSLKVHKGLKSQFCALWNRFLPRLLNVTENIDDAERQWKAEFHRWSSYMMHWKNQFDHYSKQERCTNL
# protocol-description: Inhibition of electric eel AChE using acetylthiocholine iodide as substrate incubated for 6 mins prior to substrate addition measured after 60 to 180 secs by Ellman's method
measurement-name: log10 IC50 (log10 of the value in µM)
A value of 2 here means IC50 of 100 in µM, since values are log10.

# count of solved cases: 3
> print(dat)
                                   molecule                            assayed.target  recorded.value
1  CCN(CCCCCCOc1ccc(/C=C/c2cc(OC)cc(OC)c2)cc1)Cc1cccc(OC)c1  Acetylcholinesterase (Electrophorus electricus)            1.85
2  COc1cc(/C=C/c2ccc(OCCCCCCN3CCCCC3C)cc2)cc(OC)c1 (configuration not stated)  Acetylcholinesterase (Electrophorus electricus)            0.61
3  CCN(CCCCCCOc1ccc(/C=C/c2cc(OC)cc(OC)c2)cc1)Cc1cccc(F)c1  Acetylcholinesterase (Electrophorus electricus)            1.89

Exercise: May I ask what log10 IC50 has been recorded for COc1cc(/C=C/c2ccc(OCCCCCCN(C)Cc3ccccc3)cc2)cc(OC)c1 ?
Key: 1.07

Exercise: Please give the result for CCN(CCCCCCOc1ccc(/C=C/c2cc(OC)cc(OC)c2)cc1)Cc1ccccc1OC too.
Key: 1.74

Exercise: Please give the result for COc1cc(/C=C/c2ccc(OCCCCCCN3CCCC3)cc2)cc(OC)c1 too.
Key: 0.82
